- protocol_details: In vivo PK in rats, p.o. administration
- Design: species or system rat
- condition: 20 mg/kg
metric_name: F, oral bioavailability (%)

COc1ccc(C(=O)O)cc1OCCCCOc1ccc(C(=O)CC(C)C)c(O)c1C [Compound 50] :: 60.4
Cc1c(OCCCCOc2ccc(C(=O)O)cc2)ccc(C(=O)CC(C)C)c1O [Compound 20] :: 23.5
COc1cc(C(=O)O)ccc1OCCCCOc1ccc(C(=O)CC(C)C)c(O)c1C [Compound 44] :: 41.9
Cc1c(OCCCCOc2ccc(F)c(C(=O)O)c2)ccc(C(=O)CC(C)C)c1O [Compound 36] :: 58.2

###

- tested_on: mGlu2 (Rattus norvegicus (Rat), UniProt P31421)
- Sequence (P31421 19-872): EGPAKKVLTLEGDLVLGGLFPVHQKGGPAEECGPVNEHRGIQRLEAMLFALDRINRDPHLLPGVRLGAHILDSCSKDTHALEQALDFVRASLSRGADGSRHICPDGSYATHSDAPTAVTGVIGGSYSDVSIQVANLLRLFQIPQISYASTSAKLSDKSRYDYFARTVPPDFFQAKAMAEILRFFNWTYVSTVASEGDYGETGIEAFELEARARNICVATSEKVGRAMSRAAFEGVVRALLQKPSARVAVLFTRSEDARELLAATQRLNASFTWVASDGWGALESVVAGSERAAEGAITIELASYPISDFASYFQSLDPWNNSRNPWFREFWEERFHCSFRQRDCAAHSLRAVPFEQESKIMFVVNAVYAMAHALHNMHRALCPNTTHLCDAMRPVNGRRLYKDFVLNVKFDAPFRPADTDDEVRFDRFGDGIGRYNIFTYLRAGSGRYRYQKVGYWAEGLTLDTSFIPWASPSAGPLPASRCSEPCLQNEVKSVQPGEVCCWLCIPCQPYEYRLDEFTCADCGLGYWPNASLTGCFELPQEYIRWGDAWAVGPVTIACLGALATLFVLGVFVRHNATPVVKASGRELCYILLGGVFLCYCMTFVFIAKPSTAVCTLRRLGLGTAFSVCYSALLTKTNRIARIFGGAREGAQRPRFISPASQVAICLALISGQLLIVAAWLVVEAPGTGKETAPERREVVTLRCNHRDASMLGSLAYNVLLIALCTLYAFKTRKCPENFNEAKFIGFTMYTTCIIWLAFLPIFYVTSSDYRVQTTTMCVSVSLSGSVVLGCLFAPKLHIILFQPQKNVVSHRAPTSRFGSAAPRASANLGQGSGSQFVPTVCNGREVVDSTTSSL
- protocol_details: mGlu2 GIRK thallium flux assay
- condition: read-out: mGlu2 PAM EC50; PAM mode; test compound, then EC20 glutamate […] later in the presence of thallium; mean ± SEM, at least three experiments
pEC50: −log10 of the molar value.
Entries annotated with measured pEC50
metric_name: pEC50

COc1cc(C(=O)NO)ccc1OCCCCOc1ccc(C(=O)CC(C)(C)C)c(O)c1C :: 5.62
Cc1c(OCc2ncc(-c3cccc(C(=O)O)c3)s2)ccc(C(=O)CC(C)(C)C)c1O :: 5.73

###

- tested_on: mGlu2 (Rattus norvegicus (Rat), UniProt P31421)
- protocol_details: mGlu2 GIRK thallium flux assay;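 also: Cell-based assay, rate of fluorescence rise right after thallium plus agonist addition read on a kinetic imaging plate reader, normalized to vehicle and maximal agonist control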
- condition: read-out: mGlu2 PAM EC50; PAM mode; test compound, then EC20 glutamate […] later in the presence of thallium; mean ± SEM, at least three experiments
Label key: true means EC50 under 0.6 µM; false means EC50 of 0.6 µM or more.

Cc1c(OCCCCOCc2cccc(-c3cccc(C(=O)O)c3)c2)ccc(C(=O)CC(C)(C)C)c1O :: false
Cc1c(OCc2cc(-c3cccc(C(=O)O)c3)ccn2)ccc(C(=O)CC(C)(C)C)c1O :: true
Cc1c(OCc2cccc(-c3cccc(C(=O)O)c3)c2)ccc(C(=O)C(C)C)c1O :: true
Cc1c(OCc2cccc(-c3cccc(C(=O)O)c3)n2)ccc(C(=O)CC(C)(C)C)c1O :: false
Cc1c(OCCCCOc2ccc(CCC(=O)O)c(O)c2)ccc(C(=O)CC(C)C)c1C :: false
CCCC(=O)c1ccc(OCc2cccc(-c3cccc(C(=O)O)c3)c2)c(C)c1O :: true
Cc1c(OCc2cccc(-c3ccccc3C(=O)O)c2)ccc(C(=O)CC(C)(C)C)c1O :: false
Cc1c(OCc2cccc(COc3ccc(C(=O)O)cc3)c2)ccc(C(=O)CC(C)C)c1O :: true

###

Below, each entry is listed with its recorded Emax.
- tested_on: mGlu3 (Rattus norvegicus (Rat), UniProt P31422)
- Sequence (P31422 23-879): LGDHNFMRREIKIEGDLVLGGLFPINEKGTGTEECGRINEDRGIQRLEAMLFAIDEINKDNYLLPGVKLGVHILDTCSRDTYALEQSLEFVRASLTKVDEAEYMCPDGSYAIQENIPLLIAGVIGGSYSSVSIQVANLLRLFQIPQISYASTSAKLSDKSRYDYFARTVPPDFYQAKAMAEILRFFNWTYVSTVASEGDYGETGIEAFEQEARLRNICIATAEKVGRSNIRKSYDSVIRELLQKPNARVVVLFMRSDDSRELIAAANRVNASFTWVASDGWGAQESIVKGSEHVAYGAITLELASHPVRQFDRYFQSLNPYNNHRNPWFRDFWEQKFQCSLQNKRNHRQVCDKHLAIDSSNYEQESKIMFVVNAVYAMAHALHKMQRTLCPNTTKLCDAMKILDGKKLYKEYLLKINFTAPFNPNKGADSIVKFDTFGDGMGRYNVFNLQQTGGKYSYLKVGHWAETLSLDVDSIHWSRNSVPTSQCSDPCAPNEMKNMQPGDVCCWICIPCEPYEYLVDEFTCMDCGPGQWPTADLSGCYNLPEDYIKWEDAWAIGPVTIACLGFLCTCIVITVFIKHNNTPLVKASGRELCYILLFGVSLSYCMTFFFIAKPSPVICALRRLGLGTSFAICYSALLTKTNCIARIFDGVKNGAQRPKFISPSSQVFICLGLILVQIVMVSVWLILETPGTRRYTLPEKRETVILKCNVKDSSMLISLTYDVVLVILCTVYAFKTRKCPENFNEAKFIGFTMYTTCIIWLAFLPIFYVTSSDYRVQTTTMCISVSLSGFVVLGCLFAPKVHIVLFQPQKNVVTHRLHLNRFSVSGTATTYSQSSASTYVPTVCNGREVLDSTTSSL
- protocol_details: mGlu3 GIRK thallium flux assay
- condition: read-out: mGlu3 PAM Max
metric_name: Emax (%)

CC(=O)c1ccc(OCc2cccc(-c3cccc(C(=O)O)c3)c2)c(C)c1O :: 67.8
COc1ccc(-c2noc(=S)[nH]2)cc1OCCCCOc1ccc(C(=O)CC(C)(C)C)c(O)c1C :: 63.6
Cc1c(OCc2cccc(-c3cc(F)cc(C(=O)O)c3)c2)ccc(C(=O)CC(C)(C)C)c1O :: 77.4
Cc1c(OCc2cccc(-c3ccc(F)c(C(=O)O)c3)c2)ccc(C(=O)CC(C)(C)C)c1O :: 74.4
Cc1c(OCc2cccc(-c3ccc(C(=O)O)cc3)c2)ccc(C(=O)CC(C)(C)C)c1O :: 57.5
Cc1c(OCc2cccc(-c3ccc(O)c(C(=O)O)c3)c2)ccc(C(=O)CC(C)(C)C)c1O :: 46.9
Cc1c(OCc2cncc(-c3cccc(C(=O)O)c3)c2)ccc(C(=O)CC(C)(C)C)c1O :: 107
Cc1c(OCCCCOCc2cccc(-c3cccc(C(=O)O)c3)c2)ccc(C(=O)CC(C)(C)C)c1O :: 74.1
